Reference for the values: patent US20240207263A1

# measuredOn: ATM (Homo sapiens (Human), UniProt Q13315)
# Sequence (Q13315 whole entry, looked up): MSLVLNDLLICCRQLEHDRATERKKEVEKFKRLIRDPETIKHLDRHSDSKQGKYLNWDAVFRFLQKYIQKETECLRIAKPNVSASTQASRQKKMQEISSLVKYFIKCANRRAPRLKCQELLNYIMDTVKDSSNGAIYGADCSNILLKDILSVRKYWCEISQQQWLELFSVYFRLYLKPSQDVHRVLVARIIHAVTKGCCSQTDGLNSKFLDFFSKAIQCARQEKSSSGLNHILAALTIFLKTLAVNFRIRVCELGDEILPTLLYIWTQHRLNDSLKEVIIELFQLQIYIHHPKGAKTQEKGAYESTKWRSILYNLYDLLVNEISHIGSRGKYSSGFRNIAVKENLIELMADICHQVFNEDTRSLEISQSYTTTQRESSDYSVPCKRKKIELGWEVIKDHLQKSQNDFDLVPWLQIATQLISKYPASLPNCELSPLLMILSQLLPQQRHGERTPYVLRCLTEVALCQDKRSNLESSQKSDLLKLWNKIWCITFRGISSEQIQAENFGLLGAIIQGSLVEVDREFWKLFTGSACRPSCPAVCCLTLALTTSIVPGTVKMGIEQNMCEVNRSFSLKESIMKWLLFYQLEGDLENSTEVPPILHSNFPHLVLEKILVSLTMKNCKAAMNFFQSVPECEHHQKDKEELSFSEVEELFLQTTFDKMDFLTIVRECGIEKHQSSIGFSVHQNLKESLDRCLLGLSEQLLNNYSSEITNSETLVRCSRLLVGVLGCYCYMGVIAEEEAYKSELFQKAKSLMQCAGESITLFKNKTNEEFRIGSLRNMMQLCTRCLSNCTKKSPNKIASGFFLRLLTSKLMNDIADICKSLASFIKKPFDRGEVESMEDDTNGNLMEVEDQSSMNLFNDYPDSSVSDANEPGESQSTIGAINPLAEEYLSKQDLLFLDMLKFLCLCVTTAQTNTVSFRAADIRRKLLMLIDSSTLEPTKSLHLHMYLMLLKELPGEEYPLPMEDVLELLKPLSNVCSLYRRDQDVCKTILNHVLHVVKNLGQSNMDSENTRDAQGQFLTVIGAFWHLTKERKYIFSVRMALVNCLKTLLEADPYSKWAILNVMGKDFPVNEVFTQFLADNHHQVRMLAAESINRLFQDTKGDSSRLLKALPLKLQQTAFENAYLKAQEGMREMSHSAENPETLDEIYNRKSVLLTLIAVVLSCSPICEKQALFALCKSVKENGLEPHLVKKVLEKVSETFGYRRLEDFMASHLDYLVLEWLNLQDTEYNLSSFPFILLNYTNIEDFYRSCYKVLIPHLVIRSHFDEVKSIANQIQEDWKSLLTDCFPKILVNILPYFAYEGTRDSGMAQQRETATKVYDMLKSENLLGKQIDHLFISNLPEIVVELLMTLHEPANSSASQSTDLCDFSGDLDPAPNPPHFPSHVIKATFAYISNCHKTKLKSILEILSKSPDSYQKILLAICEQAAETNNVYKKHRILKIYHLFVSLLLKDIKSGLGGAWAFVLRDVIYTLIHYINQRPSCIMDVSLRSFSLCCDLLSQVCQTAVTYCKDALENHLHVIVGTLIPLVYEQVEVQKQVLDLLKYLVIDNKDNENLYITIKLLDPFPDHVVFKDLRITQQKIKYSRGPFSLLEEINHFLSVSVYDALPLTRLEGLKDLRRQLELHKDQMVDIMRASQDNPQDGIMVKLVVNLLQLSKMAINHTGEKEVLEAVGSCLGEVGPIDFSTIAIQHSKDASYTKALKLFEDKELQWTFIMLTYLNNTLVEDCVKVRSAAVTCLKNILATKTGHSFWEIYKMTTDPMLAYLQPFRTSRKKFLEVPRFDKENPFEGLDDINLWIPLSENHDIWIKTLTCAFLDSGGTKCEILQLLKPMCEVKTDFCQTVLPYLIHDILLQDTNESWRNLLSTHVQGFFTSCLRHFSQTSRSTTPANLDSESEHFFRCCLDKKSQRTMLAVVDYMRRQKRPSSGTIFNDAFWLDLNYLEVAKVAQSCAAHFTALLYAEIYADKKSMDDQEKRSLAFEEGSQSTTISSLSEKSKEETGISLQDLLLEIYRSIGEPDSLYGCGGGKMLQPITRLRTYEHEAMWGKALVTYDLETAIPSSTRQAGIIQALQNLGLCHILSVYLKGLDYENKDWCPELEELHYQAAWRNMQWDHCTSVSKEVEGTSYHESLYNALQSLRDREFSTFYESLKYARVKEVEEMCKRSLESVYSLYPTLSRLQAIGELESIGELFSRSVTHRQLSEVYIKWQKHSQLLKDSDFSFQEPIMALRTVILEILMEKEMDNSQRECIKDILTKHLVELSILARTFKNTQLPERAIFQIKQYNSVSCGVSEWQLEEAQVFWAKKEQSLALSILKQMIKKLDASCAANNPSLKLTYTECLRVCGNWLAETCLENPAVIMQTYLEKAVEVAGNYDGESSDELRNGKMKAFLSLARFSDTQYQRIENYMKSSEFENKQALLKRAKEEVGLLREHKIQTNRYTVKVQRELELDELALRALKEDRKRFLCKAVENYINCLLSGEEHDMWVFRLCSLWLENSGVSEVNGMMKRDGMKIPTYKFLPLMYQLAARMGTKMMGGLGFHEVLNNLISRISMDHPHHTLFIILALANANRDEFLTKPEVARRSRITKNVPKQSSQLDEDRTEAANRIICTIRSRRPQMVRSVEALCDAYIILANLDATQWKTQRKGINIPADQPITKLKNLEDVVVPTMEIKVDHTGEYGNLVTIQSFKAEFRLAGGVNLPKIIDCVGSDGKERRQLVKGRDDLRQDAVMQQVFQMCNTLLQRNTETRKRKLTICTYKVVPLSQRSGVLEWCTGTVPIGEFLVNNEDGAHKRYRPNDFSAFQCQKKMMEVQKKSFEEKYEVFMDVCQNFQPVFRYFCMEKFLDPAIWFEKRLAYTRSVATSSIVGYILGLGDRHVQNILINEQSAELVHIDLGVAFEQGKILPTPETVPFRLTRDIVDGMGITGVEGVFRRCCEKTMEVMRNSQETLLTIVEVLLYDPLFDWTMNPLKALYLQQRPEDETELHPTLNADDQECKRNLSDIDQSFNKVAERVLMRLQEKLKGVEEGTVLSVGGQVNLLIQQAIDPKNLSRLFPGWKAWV
# assayRemarks: biochemical
# Type: biochemical
# particulars: read-out: ATM IC50
testReadout: IC50 (nM)

C[C@@H]1CCN(CCO[C@H](C)c2ccc(-c3ccc4nnc5c(c4c3)n(C3CCOCC3)c(=O)n5C)cn2)C1 :: 16
C[C@@H](OCCN1CCC(C)(C)C1)c1ccc(-c2ccc3nnc4c(c3c2)n(C2CCOCC2)c(=O)n4C)cn1 :: 12
Cn1c(=O)n(C2CCOCC2)c2c3cc(-c4ccc(COCCN5CCC(OC(F)(F)F)CC5)nc4)ccc3nnc21 :: 3.7
CC(C)n1c(=O)n(C)c2nnc3ccc(-c4ccc(COCCN5CCCC6(CCC6)C5)nc4)cc3c21 :: 24
C[C@@H](OCCN1CC2CC2C1)c1ccc(-c2ccc3nnc4c(c3c2)n(C2CCOCC2)c(=O)n4C)cn1 (stereo partly shown) :: 19
CC(C)C(OCCN1CCCC1)c1ccc(-c2ccc3nnc4c(c3c2)n(C(C)C)c(=O)n4C)cn1 (stereo not shown) :: 156
CO[C@@H]1CCN(CCO[C@H](C)c2ccc(-c3ccc4nnc5c(c4c3)n([C@H]3C[C@H](OC)C3)c(=O)n5C)cn2)C1 :: 7.9
CC(C)n1c(=O)n(C)c2nnc3ccc(-c4ccc([C@@H](C)OCCN5CCC6(CCO6)CC5)nc4)cc3c21 :: 3.4
CC(C)n1c(=O)n(C)c2nnc3ccc(-c4ccc([C@@H](C)OCCN5CC6(COC6)C5)nc4)cc3c21 :: 3
CC(CN1CC2CC2C1)OCc1ccc(-c2ccc3nnc4c(c3c2)n(C(C)C)c(=O)n4C)cn1 (stereo not shown) :: 139
